- System: HS 578T breast
- assay.overview: NCI tumour cell line growth inhibition, 48 h
Listed here are compounds together with their documented TGI.
value.kind: TGI (µM)

- compound: "CC1=C(C(=O)N[C@@H](Cc2ccccc2)C(=O)O)N2C(=O)[C@@H](NC(=O)[C@@H](N)CC(C)C)[C@H]2SC1"
  target.of.assay: "HS 578T breast"
  result.unit: "µM"
  modifier: ">"
  meas.value: 100
- compound: "CSc1ccccc1P(c1ccccc1SC)c1ccccc1SC"
  target.of.assay: "HS 578T breast"
  result.unit: "µM"
  modifier: ">"
  meas.value: 100
- compound: "Cc1cc2cccnc2c2ncccc12"
  target.of.assay: "HS 578T breast"
  result.unit: "µM"
  modifier: "="
  meas.value: 47.9
- compound: "NC(=O)c1cc(-c2ccc(-n3ccnc3)cc2)n[nH]c1=O"
  target.of.assay: "HS 578T breast"
  result.unit: "µM"
  modifier: ">"
  meas.value: 100
- compound: "COc1ccc(NS(=O)c2ccc(-c3ccccc3)cc2)cc1 (centres undefined)"
  target.of.assay: "HS 578T breast"
  result.unit: "µM"
  modifier: "="
  meas.value: 31.2
- compound: "O=c1[nH]c(=O)n(C2CC(O)C(CO)O2)cc1NN=NCCc1ccccc1 (centres undefined)"
  target.of.assay: "HS 578T breast"
  result.unit: "µM"
  modifier: ">"
  meas.value: 100
- compound: "NC(=O)c1cc(-c2ccncc2)cc(-c2ccccc2)c1N"
  target.of.assay: "HS 578T breast"
  result.unit: "µM"
  modifier: ">"
  meas.value: 23.6
- compound: "COc1ccc2c(c1)[C@]1(C[C@H]1c1ccc3c(/C=C/c4ccc(CN5C[C@@H](C)O[C@@H](C)C5)cc4)n[nH]c3c1)C(=O)N2"
  target.of.assay: "HS 578T breast"
  result.unit: "µM"
  modifier: "="
  meas.value: 49.6
- compound: "C=C(C)[C@@H]1CC[C@]2(C)CC[C@]3(C)[C@H](CC[C@@H]4[C@@]5(C)CC[C@H](OC(=O)c6ccccc6)C(C)(C)[C@@H]5CC[C@]43C)[C@@H]12"
  target.of.assay: "HS 578T breast"
  result.unit: "µM"
  modifier: ">"
  meas.value: 100
- compound: "COc1cc(-c2n/c(=C\\c3c(O)[nH]c4ccc(Cl)cc34)cc3c2=Nc2ccccc2-3)cc(OC)c1OC"
  target.of.assay: "HS 578T breast"
  result.unit: "µM"
  modifier: "="
  meas.value: 8.31
- compound: "Cc1cc(Cc2cc(C)c(O)c(C)c2)cc(C)c1O"
  target.of.assay: "HS 578T breast"
  result.unit: "µM"
  modifier: "="
  meas.value: 12.5
- compound: "NCC[Se][Se]CCN"
  target.of.assay: "HS 578T breast"
  result.unit: "µM"
  modifier: "="
  meas.value: 82.2
- compound: "COC(=O)c1ccccc1/C=C1/Cc2cccc(C)c2C1=O"
  target.of.assay: "HS 578T breast"
  result.unit: "µM"
  modifier: ">"
  meas.value: 100
- compound: "Cc1cccc(-n2c(C)nc3ccc(NC4OC(CO)C(O)C(O)C4O)cc3c2=O)c1 (centres undefined)"
  target.of.assay: "HS 578T breast"
  result.unit: "µM"
  modifier: ">"
  meas.value: 100
